tested on: CEM cells HIV-1 protection, formazan growth assay; assay: NCI AIDS Antiviral Assay
Active and inactive are the calls of the source.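 Rule for the calls: active = compounds giving half or more protection of infected cells from virus-caused growth loss, again on retest; inactive = the rest.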
Returns: one label drawn from active, inactive

The examples below pair each entry with its known result.
COMPOUND | TARGET_OR_TEST_SYSTEM | CLASS_LABEL
CC(C)C1NC(=O)C(Cc2ccccc2)NC(=O)C2NC(=O)C(Cc3ccccc3)NC(=O)C3CCCN3C(=O)CNC(=O)C(Cc3ccccc3)NC(=O)C3CNCCCCC(C(=O)O)NC(=O)C4NC(=O)C(CC(N)=O)NC(=O)CNC(=O)C(C(O)C(=O)O)NC(=O)C(CSCC(NC(=O)C(CCC(N)=O)NC(=O)C(CCCNC(=N)N)NC(=O)C(N)CSC4C)C(=O)NC(CSC2C)C(=O)N3)NC1=O (stereo not drawn) | CEM cells HIV-1 protection, formazan growth assay | active
C[n+]1c2ccccc2c(CNC(CCC(N)=O)C(=O)O)c2ccccc21 (stereo not drawn) | CEM cells HIV-1 protection, formazan growth assay | inactive
Cc1ccc2nc(Nc3ccccc3C)c(Nc3ccccc3C)nc2c1 | CEM cells HIV-1 protection, formazan growth assay | inactive
N.N.O=N[O-].O=N[O-].O=N[O-].O=N[O-].[Co+3].[Cs+] | CEM cells HIV-1 protection, formazan growth assay | inactive
CCOC(=O)NC1=NCCS1 | CEM cells HIV-1 protection, formazan growth assay | inactive
Nc1nc2c(ncn2CC2CCOC2=O)c(=O)[nH]1 (stereo not drawn) | CEM cells HIV-1 protection, formazan growth assay | inactive
Fc1ccc(C2SCc3nc4ccccc4n32)c(F)c1 (stereo not drawn) | CEM cells HIV-1 protection, formazan growth assay | inactive
CCOC(=O)/C(=C1/Nc2ccccc2S1)c1ncnc2nc[nH]c12 | CEM cells HIV-1 protection, formazan growth assay | inactive

input: # fetch the recorded call for C[C@]12CC[C@H](OC(=O)/C=C\c3ccc(N(CCCl)CCCl)cc3)CC1CC[C@@H]1C2CC[C@]2(C)NC(=O)CCC12 (stereo partly drawn) here
output: inactive

input: # fetch the recorded call for COc1cc(C)c2c(c1)CN1CN2Cc2cc(OC)cc(C)c21 here
output: inactive

input: # fetch the recorded call for O=c1oc(-c2ccccc2)cn1-c1ccccc1 here
output: inactive

input: # fetch the recorded call for COC1C(C)OC(OC2CC(C)(O)C(C(=O)O)c3cc4c(c(O)c32)C(=O)c2c(O)cc3c(c2C4=O)OC2OC3(C)C(O)C(N(C)C)C2O)C(OC)C1(C)OC (stereo not drawn) here
output: inactive

input: # fetch the recorded call for Cc1nc2ccccc2c(=O)n1NC(=O)c1ccc(CS)cc1 here
output: inactive

input: # fetch the recorded call for O=S1(=O)c2ccccc2-c2nccc3ccnc1c23 here
output: inactive

input: # fetch the recorded call for CC1=C(C)C2(OC1=O)C(O)C(C)[C@]1(O)CCC3C4CC=C5CC=CC(=O)[C@]5(C)C4C[C@@]2(O)[C@@]31C (stereo partly drawn) here
output: inactive

input: # fetch the recorded call for Cc1ccc2c(c1)C1(C)OC(CC(N)C1O)O2 (stereo not drawn) here
output: inactive

input: # fetch the recorded call for CS(=O)(=O)c1ccc(SSc2ccc(S(C)(=O)=O)cc2[N+](=O)[O-])c([N+](=O)[O-])c1 here
output: inactive

input: # fetch the recorded call for CN(C)C(=S)/N=c1\ssc(=Nc2ccccc2)n1C here
output: inactive

input: # fetch the recorded call for O=C(c1ccccc1)C(C(=O)c1ccccc1)C1(O)C(=O)c2ccccc2C1=O here
output: inactive

input: # fetch the recorded call for CC1=C2CCCC2=C/C(=N/Nc2ccc([N+](=O)[O-])cc2[N+](=O)[O-])CC1 here
output: inactive

input: # fetch the recorded call for CCOC(=O)C[C@@]12CCCNC1(C)CCc1ccccc12 (stereo partly drawn) here
output: inactive

input: # fetch the recorded call for COc1ccc(/C=C/C(=O)N[C@@H]2CCN3CCCC23)cc1 (stereo partly drawn) here
output: inactive

input: # fetch the recorded call for CC(C)(C)OC(=O)CCCCCNC(=O)CCCCCNC(=O)CCC(CN(CC(=O)OCc1ccccc1)CC(=O)OCc1ccccc1)N(CC(=O)OCc1ccccc1)CC(=O)OCc1ccccc1 (stereo not drawn) here
output: inactive

input: # fetch the recorded call for Cc1ccc(S(=O)(=O)/C(C#N)=C/NC(=S)Nc2ccc(S(N)(=O)=O)cc2)cc1 here
output: inactive

input: # fetch the recorded call for CN(C)CCNC(=O)c1cccc2c(Nc3ccc(S(N)(=O)=O)cc3)c3ccccc3nc12 here
output: inactive

input: # fetch the recorded call for COc1ccc(NC(=O)CC(=O)NN2C(=O)/C(=C/c3ccc(N(CCC#N)CCC#N)cc3C)N=C2/C=C\c2ccccc2)cc1 here
output: inactive

input: # fetch the recorded call for Nc1ncc(C2[C@H](CNC(=O)c3cc(Br)c[nH]3)C(CNC(=O)c3cc(Br)c[nH]3)[C@@H]2c2cnc(N)[nH]2)[nH]1 (stereo partly drawn) here
output: active

input: # fetch the recorded call for CN1C2(c3ccccc3)c3c(-c4ccccc4)sc(-c4ccccc4)c3C1(c1ccccc1)C1C(=O)N(c3ccccc3)C(=O)C12 (stereo not drawn) here
output: inactive

input: # fetch the recorded call for CC1(C)OCC[C@@H]1[Si](C)(C)C here
output: inactive

input: # fetch the recorded call for Cn1nc(-c2ccccc2)c2c(/C=C/c3ccccc3)onc2c1=O here
output: inactive

input: # fetch the recorded call for O=C(Cc1ccccc1)OCCOCCOCCOCCOCCOCCOCCOCCOCCOC(=O)Cc1ccccc1 here
output: inactive

input: # fetch the recorded call for CC(=O)OCc1c2ccccc2c(C)c2c1cc(F)c1ccccc12 here
output: inactive

input: # fetch the recorded call for COc1ccc(Cc2cnc(N)nc2N)cc1OC here
output: inactive

input: # fetch the recorded call for CC1=C2CCC(O)CC2(C)C(O)C1C (stereo not drawn) here
output: inactive

input: # fetch the recorded call for CCOC(=O)c1cnc2[nH]c(=O)c3ccccc3n2c1=O here
output: inactive

input: # fetch the recorded call for N#C/C(=C/Sc1ccccc1)C(=O)O here
output: inactive

input: # fetch the recorded call for COC(=O)[C@@H]1C=CCN1S(=O)(=O)c1ccc(C)cc1 here
output: inactive

input: # fetch the recorded call for CC(=O)C1C(c2ccccc2)C2(C)OC(=O)C(C#N)C12C (stereo not drawn) here
output: inactive
